Origin of measurements: ChEMBL document CHEMBL3425465

Experiment: Retention time of the compound by HPLC analysis
Format: physicochemical
Param label: returns y when Retention_time < 8 min, returns n otherwise, including exact equality.

# example entries with known answers
CC(=O)Nc1ccc(S(=O)(=O)n2cc(-c3ccnc(N)n3)c3cc(Br)ccc32)cc1: y
Nc1nccc(-c2cn(S(=O)(=O)c3ccc(OC(F)(F)F)cc3)c3ccc(Br)cc23)n1: n
Nc1nccc(-c2cn(S(=O)(=O)c3ccc(F)cc3F)c3ccccc23)n1: y
Nc1nccc(-c2cn(S(=O)(=O)c3ccc(I)cc3)c3ccccc23)n1: n

Exercise: Find out if reported Retention_time for Nc1nccc(-c2cn(S(=O)(=O)c3ccc([N+](=O)[O-])cc3)c3ccccc23)n1 is less than 8 min
Solution: y

Exercise: Find out if reported Retention_time for Cc1c(C)c(C)c(S(=O)(=O)n2cc(-c3ccnc(N)n3)c3ccccc32)c(C)c1C is less than 8 min
Solution: n
